meta.source: patent US20200017592A1

Biological target: T1, human IL-36R extracellular domain expressed with a C-terminal myc-myc-hexahistidine tag (hIL-36R-MMH) (human, UniProt Q9HB29 20-337)
T1 construct: also called Human IL-36R-MMH; REGN2105
T1 sequence (Q9HB29 other isoform, or with tags, fused parts or gaps limits assumed): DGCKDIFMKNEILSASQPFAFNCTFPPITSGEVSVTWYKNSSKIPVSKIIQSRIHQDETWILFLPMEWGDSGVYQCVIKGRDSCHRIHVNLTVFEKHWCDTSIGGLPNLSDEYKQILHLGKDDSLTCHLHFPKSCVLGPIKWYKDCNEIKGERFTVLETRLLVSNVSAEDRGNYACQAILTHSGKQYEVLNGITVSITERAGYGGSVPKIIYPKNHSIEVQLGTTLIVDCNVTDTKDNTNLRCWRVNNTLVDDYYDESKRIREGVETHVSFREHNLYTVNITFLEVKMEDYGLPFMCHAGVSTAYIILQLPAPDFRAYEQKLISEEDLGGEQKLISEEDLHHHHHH
Assay: SPR Biacore T200, mAb captured on anti-hFc, 37C, PBS-T pH 7.4 running buffer
Quick reference for koff among some binders
property: koff (s⁻¹)

- H4H14706P2 (antibody, human IgG4 S228P, kappa, V domains shown, Fully human anti-IL-36R antibody) VH: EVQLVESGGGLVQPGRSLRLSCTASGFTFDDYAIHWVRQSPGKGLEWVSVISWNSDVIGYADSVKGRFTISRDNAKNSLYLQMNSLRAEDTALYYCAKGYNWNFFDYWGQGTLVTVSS VL: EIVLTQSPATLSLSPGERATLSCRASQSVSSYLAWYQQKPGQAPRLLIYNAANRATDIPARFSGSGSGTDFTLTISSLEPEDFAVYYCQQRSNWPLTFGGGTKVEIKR: 0.00131
- H4H14728P (antibody, human IgG4 S228P, kappa, V domains shown, Fully human anti-IL-36R antibody) VH: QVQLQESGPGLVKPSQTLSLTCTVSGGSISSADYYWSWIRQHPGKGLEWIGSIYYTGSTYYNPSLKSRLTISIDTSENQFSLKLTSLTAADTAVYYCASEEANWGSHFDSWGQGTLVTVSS VL: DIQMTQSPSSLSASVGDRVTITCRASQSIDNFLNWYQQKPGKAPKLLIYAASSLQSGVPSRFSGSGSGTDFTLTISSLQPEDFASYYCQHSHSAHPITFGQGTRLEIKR: 0.00296
- H4H14758P (antibody, human IgG4 S228P, kappa, V domains shown, Fully human anti-IL-36R antibody) VH: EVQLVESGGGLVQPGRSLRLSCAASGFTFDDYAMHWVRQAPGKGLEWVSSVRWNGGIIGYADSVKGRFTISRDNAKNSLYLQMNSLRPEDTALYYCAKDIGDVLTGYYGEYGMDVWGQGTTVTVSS VL: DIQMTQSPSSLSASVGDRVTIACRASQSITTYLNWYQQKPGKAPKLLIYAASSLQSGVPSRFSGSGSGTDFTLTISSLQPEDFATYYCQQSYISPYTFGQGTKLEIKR: 0.00226
